PARAMETER: melting point

Please review the following examples before continuing.
{"COMPOUND": "CCC(C)c1cc(C=CC(=O)c2ccc(Cl)cc2)cc2cc(C(=O)OC)c(=O)oc12 (centres unmarked)", "melting point": "145 to 146 °C"}
{"COMPOUND": "CCNC(=O)c1cc2cc(/C=C/C(=O)c3ccc(C)cc3)cc(C(C)CC)c2oc1=O (centres unmarked)", "melting point": "162 to 163 °C"}
{"COMPOUND": "CCOC(=O)c1cc2cc(C=CC(=O)c3ccccc3)cc(C(C)CC)c2oc1=O (centres unmarked)", "melting point": "155 to 156 °C"}
{"COMPOUND": "CCC(C)c1cc(C=CC(=O)c2ccccc2)cc2cc(C(=O)OC)c(=O)oc12 (centres unmarked)", "melting point": "139 to 140 °C"}

Consider the record given below.
Reported melting point for CCOC(=O)c1cc2cc(/C=C/C(=O)c3cc(OC)c(OC)c(OC)c3)cc(C(C)CC)c2oc1=O (centres unmarked) was 128 to 129 °C

----------
Here the recorded pIC50 is given for each entry.
Tested on: KB (oral squamous cell carcinoma)
Assay: sulforhodamine B cell cytotoxicity assay, KB
Assay type: cell-based
Settings: Homo sapiens; Table 2; SRB assay, 48 h of exposure
Remember, pIC50 is on a log scale: it is -log10 of the molar concentration.

Please review the following examples before continuing.
{"MOLECULE": "CCOC(=O)c1cc2cc(C=O)cc(C(C)CC)c2oc1=O (stereo not shown)", "QUANTITATIVE RESULT": 3.88}
{"MOLECULE": "CCNC(=O)c1cc2cc(/C=C/C(=O)c3ccc(C)cc3)cc(C(C)CC)c2oc1=O (stereo not shown)", "QUANTITATIVE RESULT": 4.97}
{"MOLECULE": "CCOC(=O)c1cc2cc(C=CC(=O)c3ccc(C)cc3)cc(C(C)CC)c2oc1=O (stereo not shown)", "QUANTITATIVE RESULT": 4.75}
{"MOLECULE": "CCC(C)c1cc(/C=C/C(=O)c2cc(OC)c(OC)c(OC)c2)cc2cc(C(=O)OC)c(=O)oc12 (stereo not shown)", "QUANTITATIVE RESULT": 5.51}
{"MOLECULE": "CCOC(=O)c1cc2cc(C=CC(=O)c3ccc(Cl)cc3)cc(C(C)CC)c2oc1=O (stereo not shown)", "QUANTITATIVE RESULT": 4.84}
{"MOLECULE": "CCOC(=O)c1cc2cc(C=CC(=O)c3ccccc3)cc(C(C)CC)c2oc1=O (stereo not shown)", "QUANTITATIVE RESULT": 4.98}

Reported pIC50 for COc1cccc2c1C(=O)c1c(O)c3c(c(O)c1C2=O)C[C@@](O)(C(=O)CO)C[C@@H]3O[C@H]1C[C@H](N)[C@H](O)[C@H](C)O1 [Doxorubicin, reference compound] was 6.66

Reported pIC50 for CCC(C)c1cc(C=CC(=O)c2ccc(Cl)cc2)cc2cc(C(=O)OC)c(=O)oc12 (stereo not shown) was 4.55

----------
Test system: KB (oral squamous cell carcinoma)
Assay: sulforhodamine B cell cytotoxicity assay, KB
Type: cell-based
Settings: Homo sapiens; Table 2; SRB assay, 48 h of exposure
Here the recorded pIC50 is given for each entry.
Remember, pIC50 is on a log scale: it is -log10 of the molar concentration.

Please review the following examples before continuing.
{"MOLECULE": "CCC(C)c1cc(/C=C/C(=O)c2ccc(C)cc2)cc2cc(C(=O)N(CC)CC)c(=O)oc12 (centres unmarked)", "pIC50": 5.45}
{"MOLECULE": "COC(=O)c1cc2cc(/C=C/C(=O)c3cc(OC)c(OC)c(OC)c3)cc(C(C)(C)C)c2oc1=O", "pIC50": 5.08}
{"MOLECULE": "CCC(C)c1cc(C=CC(=O)c2ccccc2)cc2cc(C(=O)OC)c(=O)oc12 (centres unmarked)", "pIC50": 4.87}
{"MOLECULE": "CCOC(=O)c1cc2cc(/C=C/C(=O)c3cc(OC)c(OC)c(OC)c3)cc(C(C)CC)c2oc1=O (centres unmarked)", "pIC50": 5.03}

Consider the record given below.
Reported pIC50 for CCN(CC)C(=O)c1cc2cc(/C=C/C(=O)c3ccc(C)cc3)cc(C(C)(C)C)c2oc1=O was 5.69
